experimentalTarget: Albumin (Bos taurus) (UniProt P02769)
Sequence (P02769 whole entry, looked up): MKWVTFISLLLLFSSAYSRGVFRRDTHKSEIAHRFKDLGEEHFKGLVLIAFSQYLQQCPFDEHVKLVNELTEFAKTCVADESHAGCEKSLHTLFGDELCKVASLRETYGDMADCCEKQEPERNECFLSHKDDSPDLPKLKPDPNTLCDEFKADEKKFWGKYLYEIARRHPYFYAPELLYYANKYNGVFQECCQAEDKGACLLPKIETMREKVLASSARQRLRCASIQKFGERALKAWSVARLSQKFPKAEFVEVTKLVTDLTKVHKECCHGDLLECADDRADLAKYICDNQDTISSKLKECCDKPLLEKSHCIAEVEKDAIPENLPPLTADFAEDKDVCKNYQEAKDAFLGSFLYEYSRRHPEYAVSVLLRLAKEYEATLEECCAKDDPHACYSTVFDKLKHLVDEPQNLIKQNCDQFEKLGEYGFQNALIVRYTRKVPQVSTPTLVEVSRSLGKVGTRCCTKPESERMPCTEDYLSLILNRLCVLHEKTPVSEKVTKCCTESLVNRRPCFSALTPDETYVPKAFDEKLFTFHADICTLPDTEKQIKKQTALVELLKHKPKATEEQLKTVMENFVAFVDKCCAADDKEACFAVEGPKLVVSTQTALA
assayExplanation: bovine serum albumin binders on microarray, profiling panel, artefact control for SMM control protein annotation, biochemical, small-molecule microarray, Alexa647 label, 635/667 nm fluorescence (AID 1118);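 also: score merges 667 nm emission intensity and signal-to-noise per printed compound spot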
studyConditions: BSA-A647 binding, fluorescence 635 nm, higher = more signal
measureName: composite z-score
Answers are plain numbers.

Use these answered entries as a reference point.
>  <compound>
O=C1[C@H]2[C@H]3[C@H](O)[C@H](O)CC(=NOC[C@@H](O)COCc4ccco4)[C@@H]3CC[C@H]2C(=O)N1C1CCCCC1

>  <composite z-score>
0.0451

$$$$
>  <compound>
C[C@H]1CC[C@H]2C(=O)O[C@H](CO)CN2[C@@H]1c1ccc(Br)cc1

>  <composite z-score>
0.167

$$$$
>  <compound>
CC(C)C(=O)N[C@H]1CCCN1C(=O)C=Cc1ccccc1

>  <composite z-score>
0.564

$$$$
>  <compound>
CCOC(=O)[C@H](CC(C)C)NC(=O)CCC1CC(OC(=O)NCc2ccc3c(c2)OCO3)CC2(CCCC(COC(=O)NCCc3ccccc3OC)O2)O1 (stereo not given in full)

>  <composite z-score>
0.31

$$$$
>  <compound>
COc1ccc(COC(=O)NN=C2C[C@@H](O)[C@@H](O)[C@@H]3[C@@H]4C(=O)N([C@@H](C)c5ccccc5)C(=O)[C@@H]4CC[C@@H]23)cc1

>  <composite z-score>
0.274

$$$$

# per-item lookup of composite z-score; items listed below
1. COC(=O)[C@@H]1CC[C@H](C)[C@@H](c2ccc(Br)cc2)N1C(=O)C(F)(F)F
2. CCOC(=O)[C@H](Cc1ccccc1)NC(=O)CCC1CC(OC(=O)NCc2cccc3ccccc23)CC2(CCCC(COC(=O)NCCc3ccccc3OC)O2)O1 (stereo not given in full)

// result
-0.591
0.49

* * *

assayExplanation: CREB reporter modulators under forskolin, primary screen, cell-based, PC12, CRE-LacZ reporter, forskolin-stimulated (AID 1146);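 also: PC12 cells with 6xCRE LacZ reporter stimulated by forskolin 10 µM; beta-galactosidase reporter signal reflecting CREB driven transcription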
studyConditions: luminescence, 4.5 h, higher = more signal, called active from +8 up or from −8 down
Record yes whenever z-score is at -0.03 or higher; record no when lower.

>  <compound>
CCOC(=O)NN=C1C[C@@H](O)[C@@H](O)[C@@H]2[C@@H]3C(=O)N(CC)C(=O)[C@@H]3CC[C@H]12

>  <labelClass>
no

$$$$
>  <compound>
C#CCCCON=C1[C@H]2CCn3c(=O)n([C@@H](CC)c4ccccc4)c(=O)n3[C@H]2[C@H](O)[C@@H]2O[C@H]12

>  <labelClass>
yes

$$$$
>  <compound>
C#CCCCON=C1C[C@@H](O)[C@@H](O)[C@@H]2[C@@H]3C(=O)N(C4CCCCC4)C(=O)[C@@H]3CC[C@@H]12

>  <labelClass>
yes

$$$$
>  <compound>
CCC1=NOC(CCC2CC(OC(=O)NCc3cccc4c3OCO4)CC3(CCCC(COC(=O)NCCc4ccc(Cl)cc4)O3)O2)C1 (configuration not stated)

>  <labelClass>
no

$$$$
>  <compound>
COC(=O)[C@@H]1CC[C@H](C)[C@@H](c2ccc(C)cc2)N1C(=O)c1ccc(C=NOC[C@H]2O[C@H](c3ccccc3)C=C[C@@H]2Oc2ccc(OC)cc2)cc1

>  <labelClass>
yes

$$$$
>  <compound>
CO[C@@H]1[C@H](O)CO[C@H]1C=Cc1ccccc1

>  <labelClass>
no

$$$$

Please find the next compound below.
// query Determine whether measured z-score meets or exceeds -0.03 for CC(C)(C)N1C(=O)[C@H]2[C@H]3[C@H](O)[C@H](O)CC(=NNC(=O)OCc4ccccc4)[C@H]3CC[C@H]2C1=O
// result yes

* * *

experimentalTarget: Fibroblast growth factor 2 (Homo sapiens) (UniProt P09038)
Sequence (P09038 whole entry, looked up): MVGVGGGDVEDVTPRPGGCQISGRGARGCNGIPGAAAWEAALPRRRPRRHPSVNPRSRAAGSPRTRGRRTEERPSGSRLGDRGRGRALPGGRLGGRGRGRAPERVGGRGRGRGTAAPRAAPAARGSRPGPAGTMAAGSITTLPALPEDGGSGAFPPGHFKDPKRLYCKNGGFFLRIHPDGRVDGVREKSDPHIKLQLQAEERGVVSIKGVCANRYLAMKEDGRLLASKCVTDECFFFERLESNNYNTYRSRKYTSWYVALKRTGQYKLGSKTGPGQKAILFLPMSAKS
assayExplanation: FGF2 binders on small-molecule microarrays, primary screen, biochemical, small-molecule microarray, 635/667 nm fluorescence (AID 1133)
studyConditions: small-molecule microarray binding, FGF2, fluorescence 635/667; higher = more signal
measureName: composite z-score
Answers are plain numbers.

See these solved cases before continuing.
>  <molecule>
O=C1CCCC=C1C(O)c1ccc([N+](=O)[O-])cc1 (configuration not stated)

>  <composite z-score>
0.511

$$$$
>  <molecule>
COCC#Cc1ccc([C@@H]2N[C@H](C(=O)O)CC[C@H]2C)cc1

>  <composite z-score>
-0.0471

$$$$
>  <molecule>
O=C1[C@H]2[C@H]3[C@H](O)[C@H](O)CC(=NOCc4ccccc4)[C@H]3CC[C@H]2C(=O)N1C1CCCCC1

>  <composite z-score>
0.479

$$$$
>  <molecule>
CON=C1c2cc(OC)ccc2O[C@H](c2cccc(OC)c2)[C@H]1O

>  <composite z-score>
0.675

$$$$
>  <molecule>
CC(=O)OC[C@H]1O[C@H](CC=NO[C@@H](C)c2cc(-c3c(C)cc(C)cc3C)no2)C=C[C@@H]1OC(C)=O

>  <composite z-score>
0.323

$$$$
>  <molecule>
COc1ccc2c(c1)O[C@@H](c1cccc(C(F)(F)F)c1)[C@H](O)C2=O

>  <composite z-score>
0.656

$$$$

Kindly give each listed record's composite z-score.
1. CC(C)[C@@H](OCc1ccccc1)[C@H](C)CON=C1[C@H]2CCn3c(=O)n(-c4ccccc4)c(=O)n3[C@H]2[C@H](O)[C@@H]2O[C@H]12
2. COCCNC(=O)OCC1CCCC2(CC(OC(=O)NCc3cccc4ccccc34)CC(CCC(=O)N[C@@H](C)C(=O)OC)O2)O1 (some centres not stated)
3. CC(C)(C)N1C(=O)[C@H]2[C@H]3[C@H](O)[C@H](O)CC(=NNC(=O)OCc4ccccc4)[C@@H]3CC[C@H]2C1=O
4. C[C@@H]1CC[C@H]2C(=O)OC(CN3C(=O)c4ccccc4C3=O)CN2[C@H]1c1ccc(Br)cc1 (some centres not stated)
5. COC(=O)CC=C[C@@H](C)[C@@H](C=NOC[C@@H](O)COCc1ccco1)OC
6. CC(=O)OC[C@H]1O[C@@H](ON=C(C)CCN2CCCCc3nc(C)c(C)cc32)[C@H](OC(C)=O)[C@@H](OC(C)=O)[C@@H]1OC(C)=O
7. CON=C(C)CCC(=O)OC[C@H]1O[C@H](C#Cc2ccccc2)C=C[C@@H]1Oc1ccc(C)cc1
8. O=C1C2=CC[C@H]3C(=O)N(Cc4ccccc4)C(=O)[C@H]3[C@H]2[C@H](O)[C@@H]2O[C@H]12

// result
1: 0.324; 2: 1.04; 3: 0.704; 4: -0.204; 5: 0.509; 6: 1.14; 7: 0.344; 8: -0.022

Value sought for every listed molecule: composite z-score.
1. CCOC(=O)[C@H](CC(C)C)NC(=O)CCC1CC(OC(=O)NCCc2ccc(F)cc2)CC2(CCCC(COC(=O)NCc3cccc(C(F)(F)F)c3)O2)O1 (some centres not stated)
2. CCOC(=O)CCN1C(=O)[C@H]2[C@H]3[C@H](O)[C@H](O)CC(=O)[C@@H]3CC[C@H]2C1=O
3. COc1ccc(OC[C@@H](CO)OC)cc1
4. CO[C@H]1COC(=O)CCC[C@H](C)[C@@H](OC)COC(=O)CC=C[C@@H]1C
5. COC(=O)[C@H](C)NC(=O)CCC1CC(OC(=O)NCc2cccc3ccccc23)CC2(CCCC(COC(=O)NCc3ccccc3)O2)O1 (some centres not stated)

// result
1: 0.987; 2: 1.28; 3: 0.205; 4: 0.638; 5: 0.846

* * *

experimentalTarget: Dihydroorotate dehydrogenase (quinone), mitochondrial (Plasmodium falciparum (isolate 3D7)) (UniProt Q08210)
Sequence (Q08210 whole entry, looked up): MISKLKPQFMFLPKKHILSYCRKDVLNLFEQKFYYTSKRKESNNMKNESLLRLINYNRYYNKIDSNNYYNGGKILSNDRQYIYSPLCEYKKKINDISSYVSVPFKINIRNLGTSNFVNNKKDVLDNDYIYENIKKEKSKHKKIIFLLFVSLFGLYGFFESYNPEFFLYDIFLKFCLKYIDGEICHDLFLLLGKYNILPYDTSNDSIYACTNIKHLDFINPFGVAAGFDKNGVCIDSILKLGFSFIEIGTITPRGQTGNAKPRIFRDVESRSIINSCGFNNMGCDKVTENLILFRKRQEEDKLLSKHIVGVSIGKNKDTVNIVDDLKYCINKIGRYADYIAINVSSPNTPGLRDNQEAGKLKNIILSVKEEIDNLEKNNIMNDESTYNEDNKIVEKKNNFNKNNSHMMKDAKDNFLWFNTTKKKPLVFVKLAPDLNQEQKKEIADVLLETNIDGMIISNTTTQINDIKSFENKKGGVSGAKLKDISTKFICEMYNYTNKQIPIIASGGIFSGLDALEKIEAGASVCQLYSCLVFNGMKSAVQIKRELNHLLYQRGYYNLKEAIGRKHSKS
assayExplanation: PfDHODH enzyme inhibitors, primary screen, biochemical, C-terminal His tag, absorbance 600 nm (AID 1175);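 also: recombinant parasite enzyme with a five histidine tag at its C terminus; test concentration not given here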
studyConditions: DCIP absorbance 600 nm, higher = more signal, called active from +8 up or from −8 down
measureName: composite z-score
Answers are plain numbers.

In the examples that follow, each entry is paired with its recorded composite z-score.
>  <molecule>
CO[C@@H]1COC(=O)[C@@H]2CCCN2C(=O)[C@@H](C)COC(=O)CCC[C@H]1C

>  <observed>
-1.47

$$$$
>  <molecule>
CCCNC(=O)OC[C@H]1O[C@H](CCON=C2c3cc(OC)ccc3O[C@H](c3cccc(OC)c3)[C@H]2O)C=C[C@@H]1Oc1ccc(OC)cc1

>  <observed>
0.159

$$$$
>  <molecule>
COc1cccc([C@H](O)Cn2cc(-c3ccc(CON=C(C)C)cc3)nn2)c1

>  <observed>
-0.217

$$$$

Please state, for each entry, its recorded composite z-score.
1. CCOC(=O)CCN1C(=O)[C@H]2[C@H]3[C@H](O)[C@H](O)CC(=O)[C@@H]3CC[C@H]2C1=O
2. C[C@H]1CC[C@@H](C(=O)O)N[C@@H]1c1ccc(C#Cc2ccccc2)cc1

// result
[0.462, -1.36]

Give composite z-score for each of the items listed below.
1. CC(C)[C@@H](OCc1ccccc1)[C@H](C)C=NOC[C@@H](O)[C@H]1O[C@@H]2OC(C)(C)O[C@@H]2[C@H]1O
2. Cc1ccc(C(C)C)n1C(=O)OC(C)(C)C
3. CCOC(=O)[C@H](Cc1ccccc1)NC(=O)CCC1CC(OC(=O)NCc2cccc3ccccc23)CC2(CCCC(COC(=O)NCC3CCCCC3)O2)O1 (stereo partly drawn)

// result
[0.188, -1.24, -0.105]
